The measured values listed here are drawn from patent US7932270B2.

target: chicken gizzard smooth muscle myosin subfragment-1 chemically crosslinked to cardiac or skeletal actin (Gallus gallus, UniProt P10587); construct: chicken gizzard smooth muscle myosin subfragment-1; from tissue; host or cells: chicken gizzard; experiment: Smooth muscle myosin ATPase dose response assay (pyruvate kinase/horseradish peroxidase/pyruvate oxidase-coupled, amplex red fluorescence); type: biochemical; conditions: read-out: IC50 Arithmetic Mean
reported_property: log10(IC50) (log10 of the value in µM)

| compound | log10(IC50) |
| --- | --- |
| CC(C)(C)OC(=O)NCc1ccc(CNC(=O)c2ccc(-c3ccccc3C#N)nc2NCCc2cccc(F)c2)nc1 | 1.84 |
| N#Cc1ccccc1-c1ccc(C(=O)NCC2CCCCCN2C(=O)CCCN)c(NCCc2cccc(F)c2)n1 (stereo not drawn) | -0.42 |
| O=C(NC[C@H]1CCCN1)c1ccc(-c2cn[nH]c2)nc1NCCc1cccc(F)c1 | 0.68 |
| Cc1cc(-c2ccccc2C#N)nc(NCCc2cccc(F)c2)c1C(=O)NCc1cccnc1 | 0.03 |
| Cc1csc(-c2ccc(C(=O)NCc3cccnc3)c(NCCc3ccccn3)n2)c1 | -0.46 |
| CC(C)(C)OC(=O)NCCCNC(=O)CNC(=O)c1ccc(-c2ccccc2C#N)nc1NCCc1cccc(F)c1 | 0.99 |
| Cc1ncccc1CNC(=O)c1ccc(-c2ccccc2C#N)nc1NCCc1cccc(F)c1 | -1.66 |
| N#Cc1ccccc1-c1nc(NCCc2cccc(F)c2)c(C(=O)NCc2cccnc2CN)cc1F | -2.22 |
| N#Cc1ccccc1-c1ccc(C(=O)NCc2cccc(C(F)(F)F)n2)c(NCCc2cccc(F)c2)n1 | -0.22 |
| O=C(NC[C@H]1CCN1)c1cc(F)c(-c2cn[nH]c2)nc1NCCc1cccc(F)c1 | -0.33 |
| Cn1cc(-c2nc(NCCc3cccc(F)c3)c(C(=O)NCC(CO)CO)cc2F)cn1 | -0.87 |
| C[C@H](CNC(=O)c1cc(F)c(-c2cn[nH]c2)nc1NCCc1cccc(F)c1)NC(=O)CN | -0.91 |
| N#Cc1cccc(CCNc2nc(-c3ccccc3)ccc2C(=O)NCc2cccnc2)c1 | 0.67 |
| O=C(NCc1cccnc1)c1ccc(-c2ccccc2)nc1NCCc1ccccc1F | -0.97 |
| N#Cc1ccccc1-c1ccc(C(=O)NCCCC(N)=O)c(NCCc2cccc(F)c2)n1 | -0.73 |
| CC(=O)N1CC[C@@H]1CNC(=O)c1ccc(-c2ccccc2C#N)nc1NCCc1cccc(F)c1 | -1.37 |
| CC(=O)N1CCC(CNC(=O)c2ccc(-c3ccccc3C#N)nc2NCCc2cccc(F)c2)C1 (stereo not drawn) | -0.48 |
| NCc1ccc(-c2ccc(C(=O)NCc3cccnc3)c(NCCc3cccc(F)c3)n2)s1 | 0.43 |
| N#Cc1ccccc1-c1ccc(C(=O)NC[C@H]2CCCN2C(=O)CCN)c(NCCc2cccc(F)c2)n1 | -1.33 |
| Cn1cc(-c2ccc(C(=O)NC[C@H]3CCCN3C(=O)CCCNC(=O)OC(C)(C)C)c(NCCc3cccc(F)c3)n2)cn1 | 0.56 |
| N#Cc1ccccc1-c1ccc(C(=O)NC[C@@H](CO)NC(=O)CN)c(NCCc2cccc(F)c2)n1 | -0.60 |
| NCCCNc1ncccc1CNC(=O)c1ccc(-c2cn[nH]c2)nc1NCCc1cccc(F)c1 | -0.89 |
| N#Cc1ccccc1-c1nc(NCCc2cccc(F)c2)c(C(=O)NC[C@H]2CCCN2C(=O)CCN)cc1F | -1.38 |
| NC(=O)c1cccc(CCNc2nc(-c3ccccc3)ccc2C(=O)NCc2cccnc2)c1 | 1.06 |
| CC(O)c1ccc(-c2ccc(C(=O)NCc3cccnc3)c(NCCc3cccc(F)c3)n2)s1 (stereo not drawn) | -0.38 |
| N#Cc1ccccc1-c1ccc(C(=O)NCc2cccc(C(=O)O)n2)c(NCCc2cccc(F)c2)n1 | -1.33 |
| CC(C)(C)OC(=O)NCCCN1C(=O)CC[C@@H]1CNC(=O)c1cc(F)c(-c2ccccc2C#N)nc1NCCc1cccc(F)c1 | -0.07 |
| Cn1cc(-c2ccc(C(=O)NC[C@H]3CCCN3C(=O)CCCN)c(NCCc3cccc(F)c3)n2)cn1 | -0.45 |
| CC(C)(CNC(=O)c1ccc(-c2ccccc2C#N)nc1NCCc1cccc(F)c1)NC(=O)CCCN | -0.56 |
| N#Cc1ccccc1-c1ccc(C(=O)NCC2CCN(CCCN)C2)c(NCCc2cccc(F)c2)n1 (stereo not drawn) | 0.68 |
| C[C@H](CNC(=O)c1ccc(-c2ccccc2C#N)nc1NCCc1cccc(F)c1)N(C)C(=O)CNC(=O)OC(C)(C)C | 0.77 |
| Cc1cccc(CCNc2nc(-c3ccccc3)ccc2C(=O)NCc2cccnc2)c1 | -0.35 |
| Cn1nccc1CNC(=O)c1ccc(-c2ccccc2)nc1NCCc1ccccn1 | 0.11 |
| Cn1ccc(CNC(=O)c2ccc(-c3ccccc3)nc2NCCc2ccccn2)n1 | 0.44 |
| C[C@@H](NC(=O)OC(C)(C)C)C(=O)N1CCC[C@@H]1CNC(=O)c1ccc(-c2ccccc2C#N)nc1NCCc1cccc(F)c1 | 0.60 |
| COC(=O)[C@@H](CN)NC(=O)c1ccc(-c2ccccc2C#N)nc1NCCc1cccc(F)c1 | 0.38 |

* * *

target: chicken gizzard smooth muscle myosin subfragment-1 chemically crosslinked to cardiac or skeletal actin (Gallus gallus)
pIC50: −log10 of the molar value.
The class of a record is decided solely by its measured pIC50; consult 0 (below 5), 1 (5 to below 7), 2 (7 or more)

| molecule | classification |
| --- | --- |
| CC(C)(CNC(=O)c1ccc(-c2ccccc2C#N)nc1NCCc1cccc(F)c1)NC(=O)CN | 1 |
| Cn1cc(-c2nc(NCCc3cccc(F)c3)c(C(=O)NC[C@H]3CCCN3C(=O)OC(C)(C)C)cc2C#N)cn1 | 1 |
| CC(C)(C)OC(=O)NCCCN1C(=O)CCCCC1CNC(=O)c1ccc(-c2ccccc2C#N)nc1NCCc1cccc(F)c1 (stereo not drawn) | 0 |
| Cn1cc(-c2nc(NCCc3cccc(F)c3)c(C(=O)NCc3cccnc3CN)cc2Cl)cn1 | 2 |
| N#Cc1ccccc1-c1ccc(C(=O)NCc2ccc(N)nc2)c(NCCc2cccc(F)c2)n1 | 2 |
| Cn1cc(-c2nc(NCCc3cccc(F)c3)c(C(=O)NC[C@H]3CCCN3C(=O)OC(C)(C)C)cc2F)cn1 | 1 |
| CC(=O)N1CCC[C@H](CNC(=O)c2ccc(-c3ccccc3C#N)nc2NCCc2cccc(F)c2)C1 | 1 |
| CN1CCN(C(=O)CCN)C[C@@H]1CNC(=O)c1ccc(-c2ccccc2C#N)nc1NCCc1cccc(F)c1 | 0 |
| CC(C)C[C@H](CNC(=O)c1ccc(-c2ccccc2C#N)nc1NCCc1cccc(F)c1)NC(=O)CN | 1 |
| COc1cccc(-c2ccc(C(=O)NCc3cccnc3)c(NCCc3ccccn3)n2)c1 | 0 |
| C[C@H](CNC(=O)c1ccc(-c2ccccc2C#N)nc1NCCc1cccc(F)c1)NC(=O)CCCN | 1 |
| N#Cc1ccccc1-c1ccc(C(=O)NCc2ccc(N3CCOCC3)nc2)c(NCCc2cccc(F)c2)n1 | 0 |
| Cn1ccc(-c2ccc(C(=O)NCc3cccnc3CN)c(NCCc3cccc(F)c3)n2)n1 | 2 |
| N#Cc1ccccc1-c1ccc(C(=O)N[C@@H](CCCCN)C(N)=O)c(NCCc2cccc(F)c2)n1 | 1 |
| Cc1cc(C)n(CCNc2nc(-c3ccccc3)ccc2C(=O)NCc2cccnc2)n1 | 1 |

* * *

molecular target: chicken gizzard smooth muscle myosin subfragment-1 chemically crosslinked to cardiac or skeletal actin (Gallus gallus)
Cut-off 0.1 µM on IC50: below means criterion met, at or above means criterion not met.

| chemical_string | classification |
| --- | --- |
| O=C(NCc1ccccn1)c1ccc(-c2ccc(CO)s2)nc1NCCc1cccc(F)c1 | criterion met |
| COC(=O)[C@H](CO)NC(=O)c1ccc(-c2ccccc2C#N)nc1NCCc1cccc(F)c1 | criterion not met |
| Cn1cc(-c2ccc(C(=O)NC[C@H]3CNCC(=O)N3CCCN)c(NCCc3cccc(F)c3)n2)cn1 | criterion not met |
| CC(C)(C)OC(=O)NCCc1ncccc1CNC(=O)c1ccc(-c2ccccc2C#N)nc1NCCc1cccc(F)c1 | criterion not met |
| CC(C)(C)OC(=O)NCC(=O)N1CCC[C@H](CNC(=O)c2ccc(-c3ccccc3C#N)nc2NCCc2cccc(F)c2)C1 | criterion not met |
| O=Cc1sccc1-c1ccc(C(=O)NCc2cccnc2)c(NCCc2cccc(F)c2)n1 | criterion not met |
| N#Cc1ccccc1-c1ccc(C(=O)NCc2cc(CN)ccn2)c(NCCc2cccc(F)c2)n1 | criterion not met |
| N#Cc1ccccc1CCNc1nc(-c2ccccc2C#N)ccc1C(=O)NCc1cccnc1 | criterion met |

* * *

target: chicken gizzard smooth muscle myosin subfragment-1 chemically crosslinked to cardiac or skeletal actin (Gallus gallus, UniProt P10587); construct: chicken gizzard smooth muscle myosin subfragment-1; from tissue; host or cells: chicken gizzard; test: Smooth muscle myosin ATPase dose response assay (pyruvate kinase/horseradish peroxidase/pyruvate oxidase-coupled, amplex red fluorescence); type: biochemical; conditions: read-out: IC50 Arithmetic Mean
pIC50: −log10 of the molar value.
Categorized via pIC50: bin 0: < 5; bin 1: ≥ 5 and < 7; bin 2: ≥ 7

| compound | classification |
| --- | --- |
| CNC(=O)[C@H](CNC(=O)OC(C)(C)C)NC(=O)c1ccc(-c2ccccc2C#N)nc1NCCc1cccc(F)c1 | bin 0 |
| CN(C)C(=O)CNC(=O)c1ccc(-c2ccccc2)nc1NCCc1ccccc1 | bin 0 |
| CC(=O)N[C@H](C)CNC(=O)c1cc(F)c(-c2cnn(C)c2)nc1NCCc1cccc(F)c1 | bin 1 |
| N#Cc1ccccc1-c1ccc(C(=O)NCC2CCCN(CCN)C2=O)c(NCCc2cccc(F)c2)n1 (stereo not shown) | bin 2 |
| CC(C)(C)OC(=O)NCC(=O)N1CCCC[C@H]1CNC(=O)c1ccc(-c2ccccc2C#N)nc1NCCc1cccc(F)c1 | bin 0 |
| N#Cc1ccccc1-c1ccc(C(=O)NCC(CN)C(N)=O)c(NCCc2cccc(F)c2)n1 (stereo not shown) | bin 1 |
| O=C(NC[C@H]1CCN1C(=O)CO)c1cc(F)c(-c2cn[nH]c2)nc1NCCc1cccc(F)c1 | bin 2 |
| N#Cc1ccccc1-c1ccc(C(=O)NCc2cccc(CN)n2)c(NCCc2cccc(F)c2)n1 | bin 2 |
| N#Cc1ccccc1-c1ccc(C(=O)NCCc2cnccn2)c(NCCc2cccc(F)c2)n1 | bin 1 |
| N#Cc1ccccc1-c1ccc(C(=O)NC[C@H]2CCCC(=O)N2)c(NCCc2cccc(F)c2)n1 | bin 2 |
| Cn1cc(-c2nc(NCCc3cccc(F)c3)c(C(=O)NCc3cccnc3CN)cc2C#N)cn1 | bin 2 |
| CN1CCC(CCNc2nc(-c3ccccc3)ccc2C(=O)NCc2cccnc2)CC1 | bin 0 |
| O=C(NCc1cccnc1)c1ccc(-c2ccccc2)nc1NCCc1ncccc1F | bin 1 |
| O=C(NCc1cccnc1)c1cc(Br)c(-c2cn[nH]c2)nc1NCCc1cccc(F)c1 | bin 2 |
| O=C(NCc1cccnc1)c1ccc(-c2ccccc2)nc1NCC1CCCO1 (stereo not shown) | bin 1 |
| O=C(NCc1cccnc1)c1ccc(-c2sccc2CO)nc1NCCc1cccc(F)c1 | bin 1 |
